experimental_system: T1, human IL1RAP (hu-IL1RAP) on human cells (human, UniProt Q9NPH3 21-570)
T1 sequence: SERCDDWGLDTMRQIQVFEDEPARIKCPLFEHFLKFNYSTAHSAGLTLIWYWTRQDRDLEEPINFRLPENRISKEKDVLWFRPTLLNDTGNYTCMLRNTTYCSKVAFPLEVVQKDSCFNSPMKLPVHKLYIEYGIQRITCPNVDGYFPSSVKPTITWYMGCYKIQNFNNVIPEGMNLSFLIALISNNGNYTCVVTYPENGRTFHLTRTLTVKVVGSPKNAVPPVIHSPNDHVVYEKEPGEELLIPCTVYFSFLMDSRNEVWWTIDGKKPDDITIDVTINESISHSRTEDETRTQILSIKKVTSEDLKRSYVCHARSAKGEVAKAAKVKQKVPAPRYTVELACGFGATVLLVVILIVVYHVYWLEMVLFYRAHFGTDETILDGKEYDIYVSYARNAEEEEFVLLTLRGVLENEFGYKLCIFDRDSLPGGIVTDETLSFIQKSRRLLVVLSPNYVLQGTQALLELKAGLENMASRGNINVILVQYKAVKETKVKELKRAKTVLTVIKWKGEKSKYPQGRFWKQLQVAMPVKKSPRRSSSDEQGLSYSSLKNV
experimental_details: cell-based or functional assay
readout_label: HEK-Blue, IL-36α, % inhibition at 100 nM (Fab)

- K17/H3 Fab (VL-A51Y/W92K, VH-V51S) (Fab, V domains shown, Fab with 8xHis tag) VH: EVQLVESGGGLVQPGGSLRLSCAASGFTFSNYAMSWVRQAPGKGLEWVATSTEGGDYNYYLDDVKGRFTISRDNAKNSLYLQMNSLRAEDTAVYYCARDRWPYFFDYWGQGTLVTVSS VL: DIQMTQSPSSLSASVGDRVTITCRASENIYSNLAWYQQKPGKSPKLLVYGYKNLADGVPSRFSGSGSGTDYTLTISSLQPEDFATYYCQHFKTTPRTFGGGTKVEIK: 100%
- K17/H2 Fab (VL-A51Y/W92K, VH-R96D) (Fab, V domains shown, Fab with 8xHis tag) VH: EVQLVESGGGLVQPGGSLRLSCAASGFTFSNYAMSWVRQAPGKGLEWVATVTEGGDYNYYLDDVKGRFTISRDNAKNSLYLQMNSLRAEDTAVYYCARDDWPYFFDYWGQGTLVTVSS VL: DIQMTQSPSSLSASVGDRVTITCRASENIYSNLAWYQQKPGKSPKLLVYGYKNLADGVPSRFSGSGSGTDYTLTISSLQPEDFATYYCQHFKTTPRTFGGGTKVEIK: 100%
- K17 Fab (VL A51Y/W92K) (Fab, V domains shown, Fab with 8xHis tag) VH: EVQLVESGGGLVQPGGSLRLSCAASGFTFSNYAMSWVRQAPGKGLEWVATVTEGGDYNYYLDDVKGRFTISRDNAKNSLYLQMNSLRAEDTAVYYCARDRWPYFFDYWGQGTLVTVSS VL: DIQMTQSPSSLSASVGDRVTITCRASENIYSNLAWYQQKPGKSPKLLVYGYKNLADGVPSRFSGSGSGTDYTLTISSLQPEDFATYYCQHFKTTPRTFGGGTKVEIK: 100%
- K13/H3 Fab (VL-A51Y/W92I, VH-V51S) (Fab, V domains shown, Fab with 8xHis tag) VH: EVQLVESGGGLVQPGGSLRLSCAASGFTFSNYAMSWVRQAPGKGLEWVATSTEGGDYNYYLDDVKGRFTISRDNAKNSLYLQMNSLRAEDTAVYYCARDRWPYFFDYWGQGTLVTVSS VL: DIQMTQSPSSLSASVGDRVTITCRASENIYSNLAWYQQKPGKSPKLLVYGYKNLADGVPSRFSGSGSGTDYTLTISSLQPEDFATYYCQHFITTPRTFGGGTKVEIK: 98%
- K13/H2 Fab (VL-A51Y/W92I, VH-R96D) (Fab, V domains shown, Fab with 8xHis tag) VH: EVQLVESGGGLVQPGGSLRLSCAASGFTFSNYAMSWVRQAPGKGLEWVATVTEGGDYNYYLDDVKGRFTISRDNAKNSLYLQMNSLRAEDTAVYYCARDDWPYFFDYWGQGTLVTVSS VL: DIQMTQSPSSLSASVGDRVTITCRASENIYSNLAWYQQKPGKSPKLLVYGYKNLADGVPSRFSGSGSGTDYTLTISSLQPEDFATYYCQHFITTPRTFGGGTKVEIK: 99%
- K10 Fab (VL A51Y) (Fab, V domains shown, Fab with 8xHis tag) VH: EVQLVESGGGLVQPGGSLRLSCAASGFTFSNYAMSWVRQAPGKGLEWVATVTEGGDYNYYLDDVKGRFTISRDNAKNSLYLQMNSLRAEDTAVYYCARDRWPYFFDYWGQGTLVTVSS VL: DIQMTQSPSSLSASVGDRVTITCRASENIYSNLAWYQQKPGKSPKLLVYGYKNLADGVPSRFSGSGSGTDYTLTISSLQPEDFATYYCQHFWTTPRTFGGGTKVEIK: 100%
- K13 Fab (VL A51Y/W92I) (Fab, V domains shown, Fab with 8xHis tag) VH: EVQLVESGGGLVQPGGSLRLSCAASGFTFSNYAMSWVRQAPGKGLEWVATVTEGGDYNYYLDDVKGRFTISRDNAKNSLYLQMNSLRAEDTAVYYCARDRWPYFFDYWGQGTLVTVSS VL: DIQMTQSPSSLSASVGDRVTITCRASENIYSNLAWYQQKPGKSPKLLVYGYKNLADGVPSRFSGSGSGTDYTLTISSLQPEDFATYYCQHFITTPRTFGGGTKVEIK: 100%
- Parent Fab (Fab of h11C5_C59Y/A43S) (Fab, V domains shown, Fab with 8xHis tag; also called parental Fab of h11C5_C59Y/A43S) VH: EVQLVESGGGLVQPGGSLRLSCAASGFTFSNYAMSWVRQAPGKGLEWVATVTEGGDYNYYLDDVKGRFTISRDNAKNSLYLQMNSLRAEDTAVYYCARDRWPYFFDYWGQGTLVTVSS VL: DIQMTQSPSSLSASVGDRVTITCRASENIYSNLAWYQQKPGKSPKLLVYGAKNLADGVPSRFSGSGSGTDYTLTISSLQPEDFATYYCQHFWTTPRTFGGGTKVEIK: 96%
- K10/H3 Fab (VL-A51Y, VH-V51S) (Fab, V domains shown, Fab with 8xHis tag) VH: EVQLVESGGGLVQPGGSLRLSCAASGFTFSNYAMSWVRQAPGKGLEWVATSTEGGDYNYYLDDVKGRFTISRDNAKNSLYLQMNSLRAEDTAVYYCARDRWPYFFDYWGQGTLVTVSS VL: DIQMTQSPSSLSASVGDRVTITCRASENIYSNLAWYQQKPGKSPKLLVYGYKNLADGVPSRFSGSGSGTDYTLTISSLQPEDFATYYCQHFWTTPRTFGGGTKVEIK: 100%
- K10/H2 Fab (VL-A51Y, VH-R96D) (Fab, V domains shown, Fab with 8xHis tag) VH: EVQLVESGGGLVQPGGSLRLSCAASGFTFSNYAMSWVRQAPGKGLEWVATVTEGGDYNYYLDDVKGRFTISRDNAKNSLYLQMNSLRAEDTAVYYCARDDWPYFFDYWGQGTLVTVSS VL: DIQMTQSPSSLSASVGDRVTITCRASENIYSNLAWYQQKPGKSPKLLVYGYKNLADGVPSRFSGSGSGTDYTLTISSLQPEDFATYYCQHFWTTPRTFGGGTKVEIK: 100%
